The origin of these recorded values is patent US20240117029A1.

molecular target: T1, human CCL2 (MCP1) - wild type (wt) (human, UniProt P13500 24-99); assay: SPR Biacore T200, 37 C, antibody captured, CCL2 as analyte, 1:1 model
T1 construct: Entry is without signal peptide; Made in-house or bought from R&D Systems (279-MC), depending on the assay; monomer-dimer equilibrium; also called wt human CCL2; hCCL2
value-type: T½ (h)
The reply should be a number in h, with the unit left off.

Known results for binders:
>  <binder>
ABN912 (antibody, human IgG1, V domains shown, Generated as human IgG1 wild type and IgG1 PGLALA with kappa light chain; also called AB912; CCL2-0003) VH: EVQLVQSGGGLVQPGGSLRLSCAASGFTFSHYWMSWVRQAPGKGLEWLANIEQDGSEKYYVDSVKGRFTISRDNAKNSLYLQMNSLRAEDTAVYFCARDLEGLHGDGYFDLWGRGTLVTVSS VL: AIQLTQSPSSLSASVGDRVILTCRASQGVSSALAWYQQKPGKAPKLLIYDASSLESGVPSRFSGSGSGPDFTLTISSLQPEDFATYFCQQFNSYPLTFGGGTKVEIK

>  <T½ / h>
0.55

$$$$
>  <binder>
1G9 (antibody, V domains shown, Generated as IgG1 wild type and IgG1 PGLALA with kappa light chain; also called CCL2-0010) VH: QSLEESGGDLVKPGASLTLTCKASGIDFSLYSYMCWVRQAPGKGLEWIACVDAGASGSTYYASWAKGRFTISKTSSTTVTLQMTSLTAADTATYFCARGILYYTWPYPAGAIDAFDSWGPGTLVTVSS VL: AYDMTQTPASVSEPVGGTVTIKCQASESISNYLSWYQQKPGQPPKLLIYKASTLASGVPSRFKGSGSGTEYTVTISGVQSDDAATYYCQQSYSSSNVFNTFGGGTEVVVK

>  <T½ / h>
2.95

$$$$

// switching to the query binder
Query: Tell me its T½ given 1A5 (antibody, V domains shown, Generated as IgG1 wild type and IgG1 PGLALA with kappa light chain; also called CCL2-0009) VH: QEQLVESGGDLVKPEGSLTLTCTASGFSFSTSYWMCWVRQAPGKGLELIACISSSIGVTYYASWAEGRFTISKTSSTTVTLQMTSLTVADTATYFCARTTDDNWNVGFNLWGPGTLVTVSS VL: AYDMTQTPASVEVGVGGTVTIKCQASQSIGNRYLSWYQQKPGQPPKLLIYGTSTLASGVSSRFKGSGSGTQFTLTISGVESADSATYYCQQGATISYLDNAFGGGTEVVVK as the entry.
Result: 2.67
